Test system: bacterial 16S rRNA
assayNotes: Species specificity of short probe pairs, 16 sensor array at ambient temperature (Example 5)
Format: binding
conditionInfo: ambient temperature hybridization
{Fluorescein} = fluorescein label on detector probe, binding site for anti-fluorescein Fab-HRP conjugate; {Biotin} = biotin label on capture probe, anchors to streptavidin on sensor surface

substance	target	Species detected
PM197C (21 mer)/PM176D (21 mer): Proteus mirabilis probe pair, SEQ ID NO: 46 and 47 (DNA 1 CATCCGATAGTGCAAGGTCCG; DNA 2 AAGAGCCCCTGCTTTGGTCCG; DNA 1: 5' {Biotin}, sugars by position and backbone not given here; DNA 2: 3' {Fluorescein}, sugars by position and backbone not given here; listed as Proteus mirabilis)	bacterial 16S rRNA	Pm
KP436C (11 mer)/KP425D (11 mer): Klebsiella pneumoniae probe pair, SEQ ID NO: 48 and 49 (DNA 1 CTYAHCGCCTT; DNA 2 CCTCCCCGCTG; DNA 1: 5' {Biotin}, sugars by position, backbone and the base at N not given here; DNA 2: 3' {Fluorescein}, sugars by position and backbone not given here; listed as Klebsiella pneumoniae)	bacterial 16S rRNA	Kp
EC439C (15 mer)/EC424D (15 mer): E. coli probe pair, SEQ ID NO: 44 and 45 (DNA 1 TATTAACTTTACTCC; DNA 2 CTTCCTCCCCGCTGA; chemistry not given here; listed as Escherichia coli)	bacterial 16S rRNA	Ec

Just for reference, patent US7763426B2 is where these values come from.
